Test system: MOLT-4 leukemia
Assay text: NCI tumour cell line growth inhibition, 48 h
This listing pairs compounds with measured TGI.
Numeric answer only, unit µM assumed.

Log: MOLT-4 leukemia, compound CCC[CH2][Sn]([CH2]CCC)([CH2]CCC)[O]C(=O)c1ccc(Cl)cc1Cl , TGI = 1.71

Log: MOLT-4 leukemia, compound COC(=O)C1CCCN1C(=O)[C@@H]1CCCN1C(=O)[C@H](Cc1c[nH]c2ccccc12)NC(=S)Nc1cc(C(F)(F)F)cc(C(F)(F)F)c1 (some centres undefined) , TGI = 8.62

Log: MOLT-4 leukemia, compound CN(C)CC1C(=O)O[C@H]2[C@H]1CC/C(COC(=O)c1cc3ccccc3[nH]1)=C\CC[C@@]1(C)O[C@@H]21 (some centres undefined) , TGI = 7.32
